pEC50 values for the binders below.
Molecular target: T1, full-length beta-Catenin (Uniprot ID P35222) (Homo sapiens (Human), UniProt P35222 1-781)
T1 construct: The assay protocols call it full-length; also called B-Catenin; bCat
T1 sequence: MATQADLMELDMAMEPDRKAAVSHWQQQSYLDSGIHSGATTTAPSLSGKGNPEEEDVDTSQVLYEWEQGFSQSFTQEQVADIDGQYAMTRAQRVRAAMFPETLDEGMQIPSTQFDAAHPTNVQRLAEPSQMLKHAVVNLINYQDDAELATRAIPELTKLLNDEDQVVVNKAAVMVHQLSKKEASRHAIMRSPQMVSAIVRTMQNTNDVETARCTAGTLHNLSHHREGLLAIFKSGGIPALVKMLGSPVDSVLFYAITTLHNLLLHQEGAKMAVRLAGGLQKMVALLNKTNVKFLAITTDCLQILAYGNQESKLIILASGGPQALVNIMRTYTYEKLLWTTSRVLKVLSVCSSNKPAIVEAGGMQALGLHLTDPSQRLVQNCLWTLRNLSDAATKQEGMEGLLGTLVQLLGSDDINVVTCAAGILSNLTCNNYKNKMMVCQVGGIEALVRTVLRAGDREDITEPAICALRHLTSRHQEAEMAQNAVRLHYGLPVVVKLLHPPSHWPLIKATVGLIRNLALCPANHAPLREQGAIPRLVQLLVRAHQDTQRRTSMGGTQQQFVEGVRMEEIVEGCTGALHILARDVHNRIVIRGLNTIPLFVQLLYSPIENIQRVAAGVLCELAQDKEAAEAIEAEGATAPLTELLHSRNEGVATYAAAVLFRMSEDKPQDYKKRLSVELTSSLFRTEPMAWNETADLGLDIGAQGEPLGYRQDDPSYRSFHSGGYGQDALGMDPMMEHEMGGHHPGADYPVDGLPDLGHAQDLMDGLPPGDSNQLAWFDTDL
Experiment: AlphaScreen competition; full-length beta-catenin with biotin-labelled TCF4 10-53 peptide as competitor
pEC50: −log10 of the molar value. Starred links: 1 amine or outer side, 2 acyl side, 3 side chain; linkers in the order of their positions; H or OH if unused. Positions of bridges follow the written chain, without caps; N, C: chain ends. Non-standard residues stand in square brackets, D forms with d. Primed or numbered codes have the meaning given here. B5(4) = 2,2-bis(4-pentenyl)glycine = 2-amino-2-(pent-4-en-1-yl)hept-6-enoic acid (stitching residue), C=CCCCC(CCCC=C)(N[*:1])C(=O)[*:2]; αAllylPro = C=CC[C@@]1(C(=O)O)CCCN1; S8 = C=CCCCCCC[C@](C)(N)C(=O)O

binder | pEC50
XDAXDDAAFVXHWQ (not fully specified; N-terminal Ac; PL3 at 1; B5 at 4; S8 at 11; C-terminal NH2; staples PL3(1)-B5(4) and B5(4)-S8(11) by olefin metathesis, Stapled (stitched) peptide; also called Ac-PL3-Asp-Ala-B5-Asp-Asp-Ala-Ala-Phe-Val-S8-His-Trp-Gln-NH2) [I-285] | 6.61
Ac-[αAllylPro]DA[B5(4)]DDAAFV[S8]NWQ-NH2 (staple 1-4, 4-11, Stapled (stitched) peptide; also called Ac-PL3-Asp-Ala-B5-Asp-Asp-Ala-Ala-Phe-Val-S8-Asn-Trp-Gln-NH2) [I-284] | 5.36
XDAXDDAAFVXFWQ (not fully specified; N-terminal Ac; PL3 at 1; B5 at 4; S8 at 11; 34FF at 12; C-terminal NH2; staples PL3(1)-B5(4) and B5(4)-S8(11) by olefin metathesis, Stapled (stitched) peptide; also called Ac-PL3-Asp-Ala-B5-Asp-Asp-Ala-Ala-Phe-Val-S8-34FF-Trp-Gln-NH2) [I-262] | 6.01
XEAXDDAAFVXFWQ (not fully specified; N-terminal Ac; PL3 at 1; B5 at 4; S8 at 11; C-terminal NH2; staples PL3(1)-B5(4) and B5(4)-S8(11) by olefin metathesis, Stapled (stitched) peptide; also called Ac-PL3-Glu-Ala-B5-Asp-Asp-Ala-Ala-Phe-Val-S8-Phe-Trp-Gln-NH2) [I-279] | 5.30
